target_or_test_system: GIPC2, Q8TF65
Sequence (Q8TF65 112-203): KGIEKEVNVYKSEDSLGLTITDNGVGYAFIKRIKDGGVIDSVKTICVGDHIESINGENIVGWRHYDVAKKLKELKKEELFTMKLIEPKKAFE
test: holdup assay
Parameters: key: below the threshold = too weak to quantify, mostly under pKd 3.1 to 4
condition_set: plain residues with an end cap or a label only (N-terminal biotin on a linker: ado-ado)
quantity_kind: pKd

binder="EEPEERHTEL [CES2, O00748]" result="below the threshold"
binder="QKNKDKEYYV [NRXN3_rs746444206, Q9Y4C0]" result="below the threshold"
binder="FVHPILQSAV [PRKCA, P17252]" result="below the threshold"
